target: HLA-A*0201 class I monomer of the iTopia Epitope Discovery System; assay: iTopia binding ED50
Measure Name: EC50 (µM)
Give your result in µM as a bare value.

Ask | Look up EC50: ALPSIPVHPV [PSMA288-297 analog, Ala at P1 and Val at PΩ]
Reply | 5.97
